Values compiled from patent US20230151091A1.

- System Tested: cynomolgus monkey MuSK (cynomolgus monkey, UniProt A0A2K5USF6 24-487)
- Sequence (A0A2K5USF6 entry or part of it): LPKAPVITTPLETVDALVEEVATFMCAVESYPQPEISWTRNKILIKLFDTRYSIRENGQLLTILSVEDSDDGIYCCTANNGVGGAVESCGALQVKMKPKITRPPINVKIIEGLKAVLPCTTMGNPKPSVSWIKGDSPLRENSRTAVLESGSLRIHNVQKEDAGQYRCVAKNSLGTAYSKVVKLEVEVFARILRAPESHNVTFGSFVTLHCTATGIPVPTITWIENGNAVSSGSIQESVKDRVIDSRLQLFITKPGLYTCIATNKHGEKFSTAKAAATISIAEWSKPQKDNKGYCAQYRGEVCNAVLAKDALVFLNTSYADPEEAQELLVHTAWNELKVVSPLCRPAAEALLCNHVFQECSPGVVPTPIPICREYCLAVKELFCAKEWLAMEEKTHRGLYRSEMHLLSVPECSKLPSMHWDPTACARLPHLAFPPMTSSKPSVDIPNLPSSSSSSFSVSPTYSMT
- Test Description: Biacore, MuSK on chip, association pH 7.4, dissociation pH 5.5
The binders listed here are annotated with their R0.

Binder	R0, RU
3B2g1m4 (antibody, human IgG1, V domains shown, human IgG1-LALA backbone; produced in HEK293 cells) VH: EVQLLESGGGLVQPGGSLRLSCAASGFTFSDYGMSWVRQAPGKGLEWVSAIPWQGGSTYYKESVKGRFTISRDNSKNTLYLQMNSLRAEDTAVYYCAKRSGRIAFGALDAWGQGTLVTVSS VL: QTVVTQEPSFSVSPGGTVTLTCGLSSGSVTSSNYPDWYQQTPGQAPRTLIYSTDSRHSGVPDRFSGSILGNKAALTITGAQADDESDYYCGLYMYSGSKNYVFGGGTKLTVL	146
3B2g2m2 (antibody, human IgG1, V domains shown, human IgG1-LALA backbone; produced in HEK293 cells) VH: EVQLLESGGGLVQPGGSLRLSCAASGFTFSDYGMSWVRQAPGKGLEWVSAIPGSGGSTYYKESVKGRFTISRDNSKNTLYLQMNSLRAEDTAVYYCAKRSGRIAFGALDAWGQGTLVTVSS VL: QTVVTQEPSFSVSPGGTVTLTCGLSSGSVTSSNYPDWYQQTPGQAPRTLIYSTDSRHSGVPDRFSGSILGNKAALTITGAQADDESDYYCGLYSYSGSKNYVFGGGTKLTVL	146
3B2g2m1 (antibody, human IgG1, V domains shown, human IgG1-LALA backbone; produced in HEK293 cells; also called MuSK agonist antibody 3B2g2m1; MuSK-mAb 3B2g2m1) VH: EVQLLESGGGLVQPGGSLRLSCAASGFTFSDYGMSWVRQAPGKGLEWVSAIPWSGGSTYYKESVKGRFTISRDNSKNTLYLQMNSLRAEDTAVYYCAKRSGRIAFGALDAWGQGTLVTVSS VL: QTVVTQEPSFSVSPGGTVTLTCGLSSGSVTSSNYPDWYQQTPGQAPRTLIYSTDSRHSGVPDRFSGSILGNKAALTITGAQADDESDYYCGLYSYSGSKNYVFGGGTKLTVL	151
